read-out: Human Leukocyte Antigen - DR isotype (HLADR), HLA-DRA (gene 3122); experiment: BSK_CASM3C_HLADR: BioMAP Diversity Plus: CASM3C Assay for Human Leukocyte Antigen - DR isotype (HLADR) Biomarker Activity (AID 2283043); conditions: primary human coronary artery smooth muscle cells; actives raise or lower the signal;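 note: cell-surface HLA-DR protein level quantified by ELISA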
Activity calls are given as the source filed them. Rule for the calls: active = hit-call score of the fitted dose curve at least 0.9, where 1 is the maximum; inactive = score below 0.9.
Tick one outcome: true (active), false (inactive)

O=C(O)c1cccc(Oc2ccccc2)c1 | false

[Q] # fetch the recorded call for CCOC(=O)COc1ccc2c(c1)CC(NCC(O)c1cccc(Cl)c1)CC2 (stereo not drawn) here
[A] false

[Q] Could you do the same for "COc1cccc(-c2ccc(/C=C\CN3CCCCCC3)cc2Cl)c1" , please?
[A] true

* * *

assay: ATG_FoxO_CIS: Attagene CIS-FACTORIAL HepG2 Assay for human Forkhead box O (FoxO) (AID 2282943); conditions: HepG2 Attagene cis-reporter, FoxO element, mRNA; actives raise or lower the signal
Calls of active or inactive are those of the source. Rule for the calls: active = hit-call score of the fitted dose curve at least 0.9, where 1 is the maximum; inactive = score below 0.9.
READOUT KIND: outcome

CNS(=O)(=O)c1cc(C(=O)N2CCC(CCN3C4CCC3CC(n3c(C)nc5ccccc53)C4)(c3cccc(F)c3)CC2)c(Cl)cc1F (stereo not drawn) | inactive
COCCOCCOCCOC | inactive
Cc1ccc(N)cc1O | inactive

* * *

read-out: Insulin Like Growth Factor 1 (IGF1), IGF1 (gene 3479); test: LTEA_HepaRG_IGF1: Life Technologies and Expression Analysis (LTEA) Assay for Insulin Like Growth Factor 1 (IGF1) using HepaRG (AID 2283506); conditions: mRNA level, 48 h; actives raise or lower the signal
Calls of active or inactive are those of the source. Rule for the calls: active = hit-call score of the fitted dose curve at least 0.9, where 1 is the maximum; inactive = score below 0.9.
Tick one outcome: active, inactive

[Q] # fetch the recorded call for CC(C)=CCCC(C)CCO (centres undefined) here
[A] inactive

[Q] Could you do the same for Fc1ccccc1[C@@H](F)COC1CCC(Nc2ncnc3[nH]ncc23)CC1 (some centres undefined) , please?
[A] active

[Q] Could you do the same for "O=P(OC(CCl)CCl)(OC(CCl)CCl)OC(CCl)CCl" , please?
[A] active

[Q] Could you do the same for CC(O)CN(CCN(CC(C)O)CC(C)O)CC(C)O (centres undefined) , please?
[A] inactive

[Q] Could you do the same for "C1N2CN3CN1CN(C2)C3" , please?
[A] inactive

[Q] Could you do the same for "CCn1nc(Cc2ccccc2)cc1C1CCN(C[C@H]2C[C@H](N(C)[C@@H](C(=O)O)C(C)C)C[C@@H]2c2cccc(F)c2)CC1" , please?
[A] active

[Q] Could you do the same for O=C(O)CC(O)C(=O)O (centres undefined) , please?
[A] inactive

[Q] Could you do the same for "CC(C)CCCCCCOC(=O)c1ccc(C(=O)OCCCCCCC(C)C)c(C(=O)OCCCCCCC(C)C)c1" , please?
[A] inactive

[Q] Could you do the same for "CC[C@H]1OC(=O)[C@H](C)[C@@H](O[C@H]2C[C@@](C)(OC)[C@@H](O)[C@H](C)O2)[C@H](C)[C@@H](O[C@@H]2O[C@H](C)C[C@H](N(C)C)[C@H]2O)[C@](C)(O)C[C@@H](C)C(=O)[C@H](C)[C@@H](O)[C@]1(C)O" , please?
[A] inactive

* * *

Assay: APR_HepG2_StressKinase_72hr: Apredica 72-hour HepG2 Assay for Stress Kinase (AID 2282921)
Details: HepG2 stress kinase (phospho-c-Jun) imaging, actives raise or lower the signal
Experimental: APR_HepG2_72hr is a cell-based, multiplexed-readout assay that uses HepG2, a human liver cell line, with measurements taken at 72 hours after chemical dosing in a 384-well plate.APR_HepG2_StressKinase_72hr is one of 10 assay component(s) measured or calculated from the APR_HepG2_72hr assay. […] This assay endpoint, APR_HepG2_StressKinase_72hr, was analyzed with bidirectional fitting relative to DMSO as the negative control and baseline of activity. […]
Active and inactive are the calls of the source. Rule for the calls: active = hit-call score of the fitted dose curve at least 0.9, where 1 is the maximum; inactive = score below 0.9.
Tick one outcome: active, inactive

Cn1cnc([N+](=O)[O-])c1Sc1ncnc2nc[nH]c12 | inactive
CCCCCCCCCCCCc1ccccc1 | inactive

[Q] # fetch the recorded call for "CC1=CC(=O)CC(C)(C)C1" here
[A] inactive

[Q] Could you do the same for O=C1CCC(N2C(=O)c3ccccc3C2=O)C(=O)N1 (centres undefined) , please?
[A] inactive

[Q] Could you do the same for CCCCC(CC)COC(=O)c1ccc(C(=O)OCC(CC)CCCC)cc1 (centres undefined) , please?
[A] inactive

[Q] Could you do the same for "COc1ccc2sc(C(=O)Nc3nnn[nH]3)c(OC(C)C)c2c1" , please?
[A] inactive

[Q] Could you do the same for "O=P(OC(CCl)CCl)(OC(CCl)CCl)OC(CCl)CCl" , please?
[A] active

[Q] Could you do the same for "CC(C)CCCCCCOC(=O)c1ccc(C(=O)OCCCCCCC(C)C)c(C(=O)OCCCCCCC(C)C)c1" , please?
[A] inactive

[Q] Could you do the same for "CCOc1cccc(-n2cc(C(=O)N3CCN(c4cc(C(=O)O)c5ccccc5c4)CC3)nc2-c2ccc(C)cc2)c1" , please?
[A] active

[Q] Could you do the same for "CC[C@H]1OC(=O)[C@H](C)[C@@H](O[C@H]2C[C@@](C)(OC)[C@@H](O)[C@H](C)O2)[C@H](C)[C@@H](O[C@@H]2O[C@H](C)C[C@H](N(C)C)[C@H]2O)[C@](C)(O)C[C@@H](C)C(=O)[C@H](C)[C@@H](O)[C@]1(C)O" , please?
[A] inactive

[Q] Could you do the same for CCOC(=O)c1ccc(C2CCC(NC[C@H](O)COc3ccc(O)c(NS(C)(=O)=O)c3)CC2)cc1 (some centres undefined) , please?
[A] inactive

[Q] Could you do the same for "Cn1c(=O)c2c(ncn2C)n(C)c1=O" , please?
[A] inactive

[Q] Could you do the same for COc1ccc(-n2nc(C(F)F)cc2-c2ccc(S(C)=O)cc2)cc1 (centres undefined) , please?
[A] inactive

[Q] Could you do the same for O=C(O)CC(O)C(=O)O (centres undefined) , please?
[A] inactive

[Q] Could you do the same for "C=CCCCCCCCCC(=O)O" , please?
[A] inactive

[Q] Could you do the same for O=C1OC(=O)C2C3C=CC(C3)C12 (centres undefined) , please?
[A] inactive

[Q] Could you do the same for "CCCC(=O)OCC" , please?
[A] inactive
